Biological target: Peroxisome proliferator-activated receptor gamma (Homo sapiens, UniProt P37231)
Sequence (P37231 whole entry): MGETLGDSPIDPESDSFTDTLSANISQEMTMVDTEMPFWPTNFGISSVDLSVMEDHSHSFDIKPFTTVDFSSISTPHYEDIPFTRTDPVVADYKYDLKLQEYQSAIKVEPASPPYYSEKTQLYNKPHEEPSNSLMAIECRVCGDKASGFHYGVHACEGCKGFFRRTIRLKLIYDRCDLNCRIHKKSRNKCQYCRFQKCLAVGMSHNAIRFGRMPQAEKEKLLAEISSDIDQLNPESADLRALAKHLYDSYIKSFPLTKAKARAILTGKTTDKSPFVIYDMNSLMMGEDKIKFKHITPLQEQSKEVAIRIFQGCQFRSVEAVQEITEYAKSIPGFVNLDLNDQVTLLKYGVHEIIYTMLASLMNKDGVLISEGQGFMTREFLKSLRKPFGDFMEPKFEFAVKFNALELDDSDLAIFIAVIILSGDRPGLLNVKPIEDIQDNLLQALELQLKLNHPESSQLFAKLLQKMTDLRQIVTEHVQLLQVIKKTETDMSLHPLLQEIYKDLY
Test: Transactivation of human full length PPARgamma expressed in COS1 cells co-transfected with RXRalpha after 24 hrs by luciferase reporter gene assay
Type: cell-based, COS-1
reported endpoint: EC50
Note to self: number, then unit, no commentary.

compound	EC50
C/C=C/C=C/C(=O)N1Cc2cc(OCCc3nc(/C(C)=C/CCC(C)C)oc3C)ccc2C[C@H]1C(=O)O.CC(C)(C)N	20 nM

// for each compound below, give its EC50
1. CC(C)(C)N.CCO/C=C/C(=O)N1Cc2cc(OCCc3nc(/C=C/CCC(C)C)oc3C)ccc2C[C@H]1C(=O)O
2. C/C=C/C=C/C(=O)N1Cc2cc(OCCc3nc(/C=C/C(C)(C)CC)oc3C)ccc2C[C@H]1C(=O)O.CC(C)(C)N
3. CC(C)(C)N.CCC/C=C/C(=O)N1Cc2cc(OCCc3nc(/C=C/CCC(C)C)oc3C)ccc2C[C@H]1C(=O)O
4. C/C=C/C=C/C(=O)N1Cc2cc(OCCc3nc(/C=C/C(CC)CC)oc3C)ccc2C[C@H]1C(=O)O.CC(C)(C)N

1: 20 nM; 2: 760 nM; 3: 30 nM; 4: 760 nM

// for each compound below, give its EC50
1. CC(C)(C)N.Cc1oc(/C=C/CCC(C)C)nc1CCOc1ccc2c(c1)CN(C(=O)/C=C/c1ccco1)[C@H](C(=O)O)C2
2. CC(C)(C)N.Cc1oc(/C=C/CCC(C)C)nc1CCOc1ccc2c(c1)CN(C(=O)/C=C/C1CC1)[C@H](C(=O)O)C2

["70 nM", "70 nM"]

// for each compound below, give its EC50
1. C=CCCCC(=O)N1Cc2cc(OCCc3nc(/C=C/CCC(C)C)oc3C)ccc2C[C@H]1C(=O)O.CC(C)(C)N
2. C/C=C/C=C/C(=O)N1Cc2cc(OCCc3nc(/C=C/CC(C)(C)C)oc3C)ccc2C[C@H]1C(=O)O.CC(C)(C)N
3. CC(C)(C)N.CCC(O)/C=C/C(=O)N1Cc2cc(OCCc3nc(/C=C/CCC(C)C)oc3C)ccc2C[C@H]1C(=O)O (stereo not given in full)
4. CC(C)(C)N.CCOC/C=C/C(=O)N1Cc2cc(OCCc3nc(/C=C/CCC(C)C)oc3C)ccc2C[C@H]1C(=O)O
5. C/C=C/C=C/C(=O)N1Cc2cc(OCCc3nc(/C=C/C(C)CCC)oc3C)ccc2C[C@H]1C(=O)O.CC(C)(C)N (stereo not given in full)
6. C/C=C/C=C/C(=O)N1Cc2cc(OCCc3nc(/C(=C/C)CC)oc3C)ccc2C[C@H]1C(=O)O.CC(C)(C)N

["50 nM", "160 nM", "240 nM", "90 nM", "310 nM", "350 nM"]

// for each compound below, give its EC50
1. C/C=C/C=C/C(=O)N1Cc2cc(OCCc3nc(CCCCC(C)C)oc3C)ccc2C[C@H]1C(=O)O.CC(C)(C)N
2. CC(C)(C)N.CCOCCC(=O)N1Cc2cc(OCCc3nc(/C=C/CCC(C)C)oc3C)ccc2C[C@H]1C(=O)O
3. C/C=C/C=C/C(=O)N1Cc2cc(OCCc3nc(/C=C/C(C)C)oc3C)ccc2C[C@H]1C(=O)O.CC(C)(C)N
4. C=CCCC(=O)N1Cc2cc(OCCc3nc(/C=C/CCC(C)C)oc3C)ccc2C[C@H]1C(=O)O.CC(C)(C)N
5. C/C=C/C=C/C(=O)N1Cc2cc(OCCc3nc(/C=C/C(C)(C)C)oc3C)ccc2C[C@H]1C(=O)O.CC(C)(C)N
6. C/C=C/C=C(\C)C(=O)N1Cc2cc(OCCc3nc(/C=C/CCC(C)C)oc3C)ccc2C[C@H]1C(=O)O.CC(C)(C)N
7. CC(C)(C)N.CC(C)=C/C=C/C(=O)N1Cc2cc(OCCc3nc(/C=C/CCC(C)C)oc3C)ccc2C[C@H]1C(=O)O
8. CC(C)(C)N.CCCCCC(=O)N1Cc2cc(OCCc3nc(/C=C/CCC(C)C)oc3C)ccc2C[C@H]1C(=O)O

1: 110 nM; 2: 70 nM; 3: 670 nM; 4: 40 nM; 5: 540 nM; 6: 50 nM; 7: 30 nM; 8: 20 nM

// for each compound below, give its EC50
1. CC(C)(C)N.Cc1oc(/C=C/CCC(C)C)nc1CCOc1ccc2c(c1)CN(C(=O)/C=C/c1cccs1)[C@H](C(=O)O)C2
2. C/C=C/C=C/C(=O)N1Cc2cc(OCCc3nc(/C=C/CCC(C)C)oc3C)ccc2C[C@H]1C(=O)O.CC(C)(C)N
3. C/C=C/C=C/C(=O)N1Cc2cc(OCCc3nc(/C=C/CC(C)C)oc3C)ccc2C[C@H]1C(=O)O.CC(C)(C)N

1: 40 nM; 2: 30 nM; 3: 160 nM

GET /values?readout=EC50&item= C/C=C/C=C/C(=O)N1Cc2cc(OCCc3nc(/C(C)=C/CC)oc3C)ccc2C[C@H]1C(=O)O.CC(C)(C)N
120 nM

---

Target: Peroxisome proliferator-activated receptor alpha (Homo sapiens)
Sequence (whole entry): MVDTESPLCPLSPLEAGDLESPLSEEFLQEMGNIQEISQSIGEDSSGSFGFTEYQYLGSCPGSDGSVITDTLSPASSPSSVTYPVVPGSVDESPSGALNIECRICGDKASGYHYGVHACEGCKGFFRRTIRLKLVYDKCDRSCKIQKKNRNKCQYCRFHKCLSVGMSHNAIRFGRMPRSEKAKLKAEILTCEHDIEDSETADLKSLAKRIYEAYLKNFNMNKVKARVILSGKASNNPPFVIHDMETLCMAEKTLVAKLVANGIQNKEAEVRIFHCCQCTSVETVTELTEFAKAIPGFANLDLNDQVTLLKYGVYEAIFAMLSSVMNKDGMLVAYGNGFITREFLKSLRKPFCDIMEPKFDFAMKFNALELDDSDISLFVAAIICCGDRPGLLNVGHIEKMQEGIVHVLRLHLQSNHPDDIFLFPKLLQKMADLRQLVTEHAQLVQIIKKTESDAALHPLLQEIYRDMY
Test: Transactivation of human full length PPARalpha expressed in COS1 cells co-transfected with RXRalpha after 24 hrs by luciferase reporter gene assay relative to WY14643
Assay type: cell-based
Details: COS-1
reported endpoint: Emax

// known answers, use as guide
compound	Emax
C=CCCCC(=O)N1Cc2cc(OCCc3nc(/C=C/CCC(C)C)oc3C)ccc2C[C@H]1C(=O)O.CC(C)(C)N	< 50%
C/C=C/C=C/C(=O)N1Cc2cc(OCCc3nc(/C=C/C(C)CCC)oc3C)ccc2C[C@H]1C(=O)O.CC(C)(C)N (some centres undefined)	< 50%
C/C=C/C=C/C(=O)N1Cc2cc(OCCc3nc(/C(C)=C/CC)oc3C)ccc2C[C@H]1C(=O)O.CC(C)(C)N	< 50%

GET /values?readout=Emax&item= CC(C)(C)N.CC(C)=C/C=C/C(=O)N1Cc2cc(OCCc3nc(/C=C/CCC(C)C)oc3C)ccc2C[C@H]1C(=O)O
64%

---

Task for the reader: assign each of the following molecules its reported pIC50.
Biological target: Tyrosine-protein phosphatase non-receptor type 1 (Homo sapiens, UniProt P18031)
Sequence (P18031 whole entry): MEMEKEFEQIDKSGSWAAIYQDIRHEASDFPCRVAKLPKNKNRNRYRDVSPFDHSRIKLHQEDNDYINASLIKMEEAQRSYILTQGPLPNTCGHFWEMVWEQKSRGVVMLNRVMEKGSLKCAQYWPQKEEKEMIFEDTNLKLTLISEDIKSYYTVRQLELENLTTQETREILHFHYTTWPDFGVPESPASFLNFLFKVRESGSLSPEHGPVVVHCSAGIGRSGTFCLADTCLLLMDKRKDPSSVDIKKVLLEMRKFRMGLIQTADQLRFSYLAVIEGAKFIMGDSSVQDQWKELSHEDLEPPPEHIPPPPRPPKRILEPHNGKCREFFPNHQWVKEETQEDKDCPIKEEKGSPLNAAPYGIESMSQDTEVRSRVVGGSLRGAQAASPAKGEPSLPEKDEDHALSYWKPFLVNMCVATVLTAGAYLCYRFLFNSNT
Numbers only, as −log10 of the molar value.

molecular string	assay system	reported endpoint	assay result
C/C=C/C=C/C(=O)N1Cc2cc(OCCc3nc(/C=C/C(C)(C)C)oc3C)ccc2C[C@H]1C(=O)O.CC(C)(C)N	Tyrosine-protein phosphatase non-receptor type 1 (Homo sapiens, UniProt P18031)	pIC50	5.65

// for each molecule below, give its pIC50
1. C/C=C/C=C/C(=O)N1Cc2cc(OCCc3nc(CCCCC(C)C)oc3C)ccc2C[C@H]1C(=O)O.CC(C)(C)N
2. C/C=C/C=C/C(=O)N1Cc2cc(OCCc3nc(/C=C/CC(C)(C)C)oc3C)ccc2C[C@H]1C(=O)O.CC(C)(C)N
3. CC(C)(C)N.CC(C)=C/C=C/C(=O)N1Cc2cc(OCCc3nc(/C=C/CCC(C)C)oc3C)ccc2C[C@H]1C(=O)O
4. CC(C)(C)N.CCOCCC(=O)N1Cc2cc(OCCc3nc(/C=C/CCC(C)C)oc3C)ccc2C[C@H]1C(=O)O
5. C/C=C/C=C/C(=O)N1Cc2cc(OCCc3nc(/C(C)=C/CCC(C)C)oc3C)ccc2C[C@H]1C(=O)O.CC(C)(C)N
6. C/C=C/C=C/C(=O)N1Cc2cc(OCCc3nc(/C=C/C(C)C)oc3C)ccc2C[C@H]1C(=O)O.CC(C)(C)N

1. 5.94
2. 5.71
3. 6.02
4. 5.47
5. 5.99
6. 5.66

// for each molecule below, give its pIC50
1. C/C=C/C=C/C(=O)N1Cc2cc(OCCc3nc(/C(=C/C)CC)oc3C)ccc2C[C@H]1C(=O)O.CC(C)(C)N
2. C/C=C/C=C/C(=O)N1Cc2cc(OCCc3nc(/C=C/CCC(C)C)oc3C)ccc2C[C@H]1C(=O)O.CC(C)(C)N
3. CC(C)(C)N.Cc1oc(/C=C/CCC(C)C)nc1CCOc1ccc2c(c1)CN(C(=O)/C=C/C=C/CO)[C@H](C(=O)O)C2
4. CC(C)(C)N.Cc1oc(/C=C/CCC(C)C)nc1CCOc1ccc2c(c1)CN(C(=O)/C=C/c1cccs1)[C@H](C(=O)O)C2

1. 5.25
2. 5.93
3. 5.49
4. 5.98

// for each molecule below, give its pIC50
1. CC(C)(C)N.Cc1oc(/C=C/CCC(C)C)nc1CCOc1ccc2c(c1)CN(C(=O)/C=C/c1ccco1)[C@H](C(=O)O)C2
2. CC(C)(C)N.CCOC/C=C/C(=O)N1Cc2cc(OCCc3nc(/C=C/CCC(C)C)oc3C)ccc2C[C@H]1C(=O)O
3. C/C=C/C=C/C(=O)N1Cc2cc(OCCc3nc(/C=C/C(CC)CC)oc3C)ccc2C[C@H]1C(=O)O.CC(C)(C)N
4. C/C=C/C=C/C(=O)N1Cc2cc(OCCc3nc(/C=C/CC(C)C)oc3C)ccc2C[C@H]1C(=O)O.CC(C)(C)N

1: 6.24; 2: 5.42; 3: 5.89; 4: 5.70
